- Test system: biotinyl-Val-oxazolone
- method summary: self-aminoacylation, catalytic enhancement (BVO) (fold over background); higher = more active; k-Seq, kA / k0A0; sequences stand for … in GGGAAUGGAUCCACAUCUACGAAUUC…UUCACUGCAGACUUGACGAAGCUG
Variants at the floor of the assay were thinned out.
What self-aminoacylation was measured for each of the following?
Give bare numbers.

Use the examples below as a reference point.
AUUACGCUGGUCAUGGAGUGA [Fam2.1 aminoacylation ribozyme variant]
2.39
CCACACUUCAAGCAUUCGGCC [Fam1B.1 aminoacylation ribozyme variant]
1.99
CAACUUCAAACAAUCGUUCUG [Fam1A.1 aminoacylation ribozyme variant]
0.734
AUUCACCUGGGUGAUCGGGUG [Fam2.2 aminoacylation ribozyme variant]
4.45
AUCCCCCUAGGUCAUCGGGUG [Fam2.2 aminoacylation ribozyme variant]
8.74

Hey, can you go through the list below and give me self-aminoacylation for every item?
1. CCACACUUCAAGCAACCGGGC [Fam1B.1 aminoacylation ribozyme variant]
2. AUUACCCUGGUCAGCGACUGA [Fam2.1 aminoacylation ribozyme variant]
3. AUCCACCUAGGCCAUCGGGUG [Fam2.2 aminoacylation ribozyme variant]
4. AUUCAUCUAGGACAUCGGGUG [Fam2.2 aminoacylation ribozyme variant]

[3.18, 1.31, 4.12, 2.74]

###

- Tested on: biotinyl-Ile-oxazolone
- method summary: self-aminoacylation, catalytic enhancement (BIO) (fold over background); higher = more active; k-Seq, kA / k0A0; sequences stand for … in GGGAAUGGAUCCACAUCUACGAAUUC…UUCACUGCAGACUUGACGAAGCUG
This sample holds only a part of the variants without activity.
Lab note: compare self-aminoacylation against 4. Equal or greater, write label 1. Smaller, write label 0.

Answered examples (7):
AAGUUUCCUAAUAGUCGCAAG [Fam3.1 aminoacylation ribozyme variant]
label 0
AUUCACCAAGGUCAUCCGGUG [Fam2.2 aminoacylation ribozyme variant]
label 1
AUUACCAUGGUCAUAGAGUGA [Fam2.1 aminoacylation ribozyme variant]
label 1
AUUACCCUGUUCAUCCAGUGA [Fam2.1 aminoacylation ribozyme variant]
label 0
AUUCUCCUAGGUCUUCGGGUG [Fam2.2 aminoacylation ribozyme variant]
label 1
AUGUCUGCUAAUAGUCGCAAG [Fam3.1 aminoacylation ribozyme variant]
label 0
AUUACCCUGCUCAGCGAGUGA [Fam2.1 aminoacylation ribozyme variant]
label 0

// switching to the query sequence
I'd appreciate it if you could say whether CCACUCUUCAAGUAAUCGGUC [Fam1B.1 aminoacylation ribozyme variant] has self-aminoacylation at least equal to 4. label 0

###

- System: biotinyl-Met-oxazolone
- method summary: self-aminoacylation, catalytic enhancement (BMO) (fold over background); higher = more active; k-Seq, kA / k0A0; sequences stand for … in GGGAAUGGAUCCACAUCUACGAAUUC…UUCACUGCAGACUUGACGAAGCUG
Fewer inactive variants are shown than the library holds.
What self-aminoacylation was measured for each of the following?
Answers are plain numbers.

Use the examples below as a reference point.
AUUCACCUAGGUCAUCGGAGG [Fam2.2 aminoacylation ribozyme variant]
0.898
AUUCACCCAGGUCAUUGGGUG [Fam2.2 aminoacylation ribozyme variant]
3.36
CUACUUCAAACAAUCGGUCCG [Fam1A.1 aminoacylation ribozyme variant]
0.745
AUAACGCUGGUCAUCGAGUGA [Fam2.1 aminoacylation ribozyme variant]
4.6
CCACUCUUCAAGUAAUCGGUC [Fam1B.1 aminoacylation ribozyme variant]
0.823
AAGUUUGGUAAUAGUCGGAAG [Fam3.1 aminoacylation ribozyme variant]
0.771
AUUACCCUGGUCAGCGCGUGA [Fam2.1 aminoacylation ribozyme variant]
5.84
UAGUUUGGUAAUAGUCGCAAG [Fam3.1 aminoacylation ribozyme variant]
1.74

Quick note, self-aminoacylation for GCACACUUCACGCAAUCGGUC [Fam1B.1 aminoacylation ribozyme variant] landed at 2
